B1: library; numbered along this chain (parent)
chain: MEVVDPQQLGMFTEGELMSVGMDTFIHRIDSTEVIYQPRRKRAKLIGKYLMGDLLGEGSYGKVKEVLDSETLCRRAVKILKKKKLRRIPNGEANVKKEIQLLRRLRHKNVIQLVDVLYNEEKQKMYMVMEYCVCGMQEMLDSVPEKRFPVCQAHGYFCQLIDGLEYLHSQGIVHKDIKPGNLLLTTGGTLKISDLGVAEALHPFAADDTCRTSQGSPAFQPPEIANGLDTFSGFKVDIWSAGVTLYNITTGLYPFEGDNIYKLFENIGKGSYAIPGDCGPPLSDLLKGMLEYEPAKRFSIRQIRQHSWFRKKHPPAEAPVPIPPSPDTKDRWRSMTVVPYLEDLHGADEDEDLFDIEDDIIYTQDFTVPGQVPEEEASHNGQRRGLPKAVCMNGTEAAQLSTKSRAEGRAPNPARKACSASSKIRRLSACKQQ

Variants of: B1
Test: STK11 functional score (HeLa growth suppression), rescaled enrichment; synonymous median = 1, nonsense median = 0 (normalised score)
Settings: with HeLa; variant type: missense
Decision: STK11 functional score compared against 1; not below it gives 1, below it gives -1.

1) F231P: -1
2) C158H: 1
3) I46G: -1
4) M335S: 1
5) N119H: 1

Okay, next one:
Query: Check the entry N412C : does STK11 functional score equal or exceed 1?
Reply: 1
